target of assay: human recombinant adrenergic α2A receptor (Homo sapiens, UniProt P08913)
Construct: expressed in transfected cells; host or cells: insect Sf9 cells
Sequence (P08913 whole entry): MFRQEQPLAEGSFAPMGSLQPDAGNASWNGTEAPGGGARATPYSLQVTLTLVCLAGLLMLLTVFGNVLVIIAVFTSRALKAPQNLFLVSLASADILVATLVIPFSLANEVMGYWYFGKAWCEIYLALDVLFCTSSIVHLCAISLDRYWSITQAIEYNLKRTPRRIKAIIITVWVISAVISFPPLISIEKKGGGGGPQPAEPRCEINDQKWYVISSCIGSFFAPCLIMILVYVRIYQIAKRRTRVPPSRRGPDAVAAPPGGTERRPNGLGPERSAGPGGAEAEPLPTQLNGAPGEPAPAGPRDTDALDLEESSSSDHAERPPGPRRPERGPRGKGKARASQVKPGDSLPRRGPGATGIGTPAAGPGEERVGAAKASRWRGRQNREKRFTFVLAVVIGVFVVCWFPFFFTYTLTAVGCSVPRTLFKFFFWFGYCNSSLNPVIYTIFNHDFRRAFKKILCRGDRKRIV
test summary: Adrenergic α2A radioligand binding assay ([3H]MK-912)
test settings: 1 nM [3H]MK-912, read-out: Percent Inhibition of ligand binding, Adrenergic (1 μM) α2A

{"compound": "Cc1ccc2c(c1)c1c(n2CC2(c3ccc(F)cc3)OCCO2)CCN(C)C1", "target of assay": "human recombinant adrenergic α2A receptor (Homo sapiens, UniProt P08913)", "unit abbreviation": "%", "inhibition at 1 µM": 92}
{"compound": "CN1CCc2c(c3cc(Cl)ccc3n2CC2(c3ccc(F)cc3)OCCO2)C1", "target of assay": "human recombinant adrenergic α2A receptor (Homo sapiens, UniProt P08913)", "unit abbreviation": "%", "inhibition at 1 µM": 95}
{"compound": "Cc1ccc2c(c1)c1c(n2CC2(c3ccccc3)OCCO2)CCN(C)C1", "target of assay": "human recombinant adrenergic α2A receptor (Homo sapiens, UniProt P08913)", "unit abbreviation": "%", "inhibition at 1 µM": 91}
{"compound": "CNC(=O)CC(Cn1c2c(c3cc(C)ccc31)CN(C)CC2)c1ccc(F)cc1 (stereo not shown)", "target of assay": "human recombinant adrenergic α2A receptor (Homo sapiens, UniProt P08913)", "unit abbreviation": "%", "inhibition at 1 µM": 63}
{"compound": "Cc1ccc2c(c1)c1c(n2CC(CC(=O)O)c2ccc(F)cc2)CCN(C)C1 (stereo not shown)", "target of assay": "human recombinant adrenergic α2A receptor (Homo sapiens, UniProt P08913)", "unit abbreviation": "%", "inhibition at 1 µM": 9}
{"compound": "CCOC(=O)CC(Cn1c2c(c3cc(C)ccc31)CN(C)CC2)c1ccc(F)cc1 (stereo not shown)", "target of assay": "human recombinant adrenergic α2A receptor (Homo sapiens, UniProt P08913)", "unit abbreviation": "%", "inhibition at 1 µM": 95}
{"compound": "CN1CCc2c(c3cc(Cl)ccc3n2CC2(c3ccc(Cl)cc3)OCCO2)C1", "target of assay": "human recombinant adrenergic α2A receptor (Homo sapiens, UniProt P08913)", "unit abbreviation": "%", "inhibition at 1 µM": 95}
